This collection of values is drawn from patent US10144742B2.

target or test system: hNAMPT protein (Homo sapiens (Human))
Sequence (P43490 whole entry): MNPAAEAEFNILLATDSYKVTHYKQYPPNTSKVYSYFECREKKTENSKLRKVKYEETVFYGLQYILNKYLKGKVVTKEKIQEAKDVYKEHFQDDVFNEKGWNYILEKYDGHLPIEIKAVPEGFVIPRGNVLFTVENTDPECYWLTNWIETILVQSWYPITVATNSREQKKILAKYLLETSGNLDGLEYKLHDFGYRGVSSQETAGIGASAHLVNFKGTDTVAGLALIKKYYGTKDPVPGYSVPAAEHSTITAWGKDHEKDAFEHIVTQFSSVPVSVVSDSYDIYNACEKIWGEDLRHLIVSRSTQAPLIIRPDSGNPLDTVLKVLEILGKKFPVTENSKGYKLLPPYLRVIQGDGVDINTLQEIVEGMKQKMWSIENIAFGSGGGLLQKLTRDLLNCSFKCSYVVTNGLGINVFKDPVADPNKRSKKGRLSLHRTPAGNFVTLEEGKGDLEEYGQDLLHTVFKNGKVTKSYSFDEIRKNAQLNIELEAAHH
assay remarks: NAMPT enzyme assay (TR-FRET/HTRF, BodiPY ligand, anti 6His-Tb)
Assay type: binding
condition label: NAMPT IC50 range class; read-out: IC50
pIC50: −log10 of the molar value.
Kindly state pIC50 for each of the entries shown.

Use these answered entries as a reference point.
compound | pIC50
O=C(NCCCn1ccnc1)c1ccc2nc(-c3ccccc3)c(-c3ccc4cc[nH]c4c3)nc2c1 | 6.00 to 6.30
Cn1cncc1CCNC(=O)c1ccc2nc(N3CCCCC3)c(-c3ccc(F)cc3)nc2c1 | > 7.00
COc1cc(OC)cc(-c2nc3cc(C(=O)NCCCn4ccnc4)ccc3nc2-c2ccccc2)c1 | 6.00 to 6.30
O=C(NCCCn1ccnc1)c1ccc2nc(-c3ccccc3)c(N3CCCCCC3)nc2c1 | 5.00 to 5.70
O=C(c1ccc2nc(-c3ccc(F)cc3)c(-c3ccc(F)cc3)nc2c1)N1CCC(c2ccccn2)C1 (stereo not drawn) | 5.00 to 5.70
O=C(c1ccc2nc(-c3ccc(F)cc3)c(-c3ccc(F)cc3)nc2c1)N1CCC(c2cccnc2)C1 (stereo not drawn) | 5.00 to 5.70

Count: 3. Required value per item: pIC50.
1. CN1CCN(c2nc3ccc(C(=O)NCCCn4ccnc4)cc3nc2-c2ccccc2)CC1=O
2. O=C(NCCCn1ccnc1)c1ccc2nc(-c3ccccc3)c(-c3ccc4nccn4c3)nc2c1
3. COc1cccc(-c2nc3ccc(C(=O)NCCc4ncc[nH]4)cc3nc2-c2cccc(OC)c2)c1

1. 6.00 to 6.30
2. 6.30 to 7.00
3. 6.00 to 6.30
